// pKd lookup, one value per entry
assayed-target: DLG4_2, P78352
Sequence (P78352 155-259): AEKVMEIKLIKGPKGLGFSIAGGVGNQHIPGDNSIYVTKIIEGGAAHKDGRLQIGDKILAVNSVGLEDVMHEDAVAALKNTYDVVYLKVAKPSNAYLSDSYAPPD
experiment: holdup assay
Design: key: below the threshold = too weak to quantify, mostly under pKd 3.1 to 4
condition: plain residues with an end cap or a label only (N-terminal biotin on a linker: ttds)

| binder | pKd |
| --- | --- |
| EMDRRPATVV [PLCB4, Q15147] | 4.25 |
| EVVHTPETSV [SLC16A3, O15427] | 4.2 |
| PVRVCEETSL [OTULIN, Q96BN8] | 4.2 |
| RHTTSTETAV [HPV30-E6, P36809] | 5.45 |
| SGSRPSATVV [HPV73-E6, Q82005] | 4.14 |
| SKPTRRETEV [HPV35-E6, P27228] | 5.51 |
| DKDPHSETAL [TMIGD1, Q6UXZ0] | 3.78 |
| RLPKIKETTV [FRMPD4, Q14CM0] | 5.6 |
| VDFPPKESSL [ACVR2A, P27037] | 3.33 |
| QRQARSETLV [HPV59-E6, Q81964] | 5.45 |
| SSLQSLETSV [ATP2B4, P23634] | 5.18 |
| RLQRRRETQV [HPV18-E6, P06463] | 5.46 |
| FHPLGADSQV [SLC2A1, P11166] | 3.95 |
